Origin of values: PubChem BioAssay AID1902

Tgt: S. pyogenes SKKanGAS, kanamycin survival, BacTiterGlo, 6 h
Assay Method Text: S. pyogenes SKKanGAS kanamycin growth inhibitors – SKKanGAS strain, luminescence, dose confirmation, streptokinase promoter inhibitor project, dose response (AID 1902);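 further: lower survival reflects blocked streptokinase promoter driving kanamycin resistance gene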
Active and inactive are the calls of the source.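 How the source made its calls: active means EC50 no more than a set limit of log units above the highest dose; inactive means the rest.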
Quantity: EC50

Compound: COc1ccc(-c2nn(-c3ccccc3)cc2/C=C2/SC(=S)N(CCC(=O)O)C2=O)cc1
Data Value: 1.83 µM

Compound: CCCCC(=O)NNC(=S)NC(=O)C(c1ccccc1)c1ccccc1
Data Value: 0.188 µM

Compound: O=C(Nc1cccc(NC(=O)c2cccnc2)c1)c1ccccc1
Data Value: > 15 µM (inactive)

Provide each entry's EC50 from the list below.
1. Cc1onc(-c2c(F)cccc2Cl)c1C(=O)NCc1ccc2c(c1)OCO2
2. COc1ccc(-c2nc(-c3cccs3)c(-c3cccs3)[nH]2)cc1OC

Reply text:
1. > 15 µM (inactive)
2. 4.32 µM

Count: 8. Required value per item: EC50.
1. CCC(=O)N(CCC(Cc1ccccc1)c1ccc2c(c1)OCO2)Cc1ccccc1F (stereo not drawn)
2. c1csc(-c2csc3nc(CN4CCOCC4)nc(NCc4ccc5c(c4)OCO5)c23)c1
3. Cc1ccc(C)c(/C=C/C(=O)c2ccccc(=O)c2O)c1
4. O=c1[nH]c(CN2CC=C(c3ccccc3)CC2)nc2scc(-c3cccs3)c12
5. Cn1c(CNC(=O)CNC(=O)c2ccc(F)cc2)cc(=O)n(C)c1=O
6. Cc1cc(C)c2nc(NNC(=O)c3ccc(S(=O)(=O)N4CCCCC4)cc3)sc2c1
7. C/C(=N\Nc1ccc(C(=O)O)cc1)c1ccc2c(c1)Nc1ccccc1S2
8. Cc1c(CCC(=O)O)c(=O)oc2cc3occ(-c4ccc(Cl)cc4)c3cc12

Reply text:
1: 6.5 µM; 2: 4.94 µM; 3: 1.9 µM; 4: 3.87 µM; 5: > 15 µM (inactive); 6: 1.86 µM; 7: 2.45 µM; 8: 3.46 µM

// each compound listed below needs its EC50
1. COc1ccc(-c2nc(NC(C)=O)sc2-c2ccc(OC)cc2)cc1
2. COc1ccc(-c2cc3nc(-c4ccccc4)cc(N4CCCC(O)C4)n3n2)cc1 (stereo not drawn)
3. CCCCCCn1c(=O)c(C(=O)Nc2cnccn2)c(O)c2ccccc21
4. CCCCNC(=O)c1onc(CSc2ccc(C(C)C)cc2)c1C(=O)O
5. O=C1c2ccccc2C2=Nc3ccccc3SC(c3ccc(Cl)cc3)C12 (stereo not drawn)

Reply text:
1. 4.05 µM
2. 4.3 µM
3. 2.98 µM
4. 4.13 µM
5. 3.9 µM

I'm hoping you can list EC50 for every compound here, please.
1. Cc1cccc(NC(=S)/N=C(\N)Nc2nc(C)c3ccc(C)cc3n2)c1
2. Cc1cccnc1NCc1ccc(O)c2ncccc12
3. C=C(C)CNC(=S)NNC(=O)CCn1c2ccc(Cl)cc2c2cc(Cl)ccc21
4. CC(C)(C)c1ccc(OCC(O)CS(=O)(=O)c2ccccn2)cc1 (stereo not drawn)
5. S=C(Nc1ccc(Cl)cc1)c1nc2ccccc2[nH]1

Reply text:
> 15 µM (inactive)
5.65 µM
2.31 µM
> 15 µM (inactive)
0.183 µM

Hey, can you go through the list below and give me EC50 for every item?
1. Nc1[nH]n2c(=O)c3c(nc2c1N=Nc1ccc(Cl)cc1)CCCC3
2. CCc1ccc(/C=C2/SC(=S)N(CC(=O)Nc3nc4ccccc4s3)C2=O)cc1
3. CCCc1cc(=O)n2[nH]cc(-c3ccc(Cl)cc3)c2n1
4. CCn1c(=O)c(C(=O)NNC(=O)c2ccccc2)c(O)c2ccccc21
5. COC(=O)c1cccc(NC(=S)NCc2ccc(Cl)cc2)c1
6. Cc1nn(-c2ccccc2)c2sc(-c3n[nH]c(=S)o3)cc12
7. CSc1nsc2nc(=O)c(/C=C3\C=Nc4ccccc43)c(N)n12
8. CCOC(=O)c1ccc(-c2ccc3c(=O)c4ccccc4n(C)c3c2)cc1F

Reply text:
["6.13 µM", "2.52 µM", "1.78 µM", "0.839 µM", "9.26 µM", "3.99 µM", "3.57 µM", "4.15 µM"]

State recorded EC50 for all listed compounds.
1. Cc1nc2ccccc2c(=O)n1/N=C/c1ccc2ccccc2c1O
2. COc1ccc(C(=O)NC(=S)N(Cc2ccccc2)Cc2ccccc2)cc1

Reply text:
["> 15 µM (inactive)", "0.674 µM"]

* * *

Tgt: S. pyogenes SKKanGAS, kanamycin survival, BacTiterGlo, 6 h
Assay Method Text: S. pyogenes SKKanGAS kanamycin growth inhibitors – SKKanGAS strain, luminescence, dose confirmation, streptokinase promoter inhibitor project, dose response (AID 1902);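 further: lower survival reflects blocked streptokinase promoter driving kanamycin resistance gene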
Calls of active or inactive are those of the source.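 How the source made its calls: active means EC50 no more than a set limit of log units above the highest dose; inactive means the rest.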
Outcomes you can answer with include only these: class 1 (active), class 0 (inactive)

Worked set:
Compound: FC(F)(F)c1ccccc1/C=N/n1c(C2CCCCC2)n[nH]c1=S
Class: class 1

Compound: COc1ccc(-c2n[nH]c(C)c2-c2ccc(Cl)cc2)c(O)c1
Class: class 1

Compound: O=C(O)c1ccc(-c2nc(-c3ccc(Cl)c(Cl)c3)cs2)cc1
Class: class 1

Compound: Cc1cc(C)n(-c2nc(SCC(=O)O)c3c4c(sc3n2)CCCC4)n1
Class: class 1

Compound: COc1cc(OC)cc(C(=O)Nc2nc(-c3ccccc3)c(-c3ccccc3)o2)c1
Class: class 1

Compound: Cc1ccc(NC(=O)c2nc[nH]c2C(=O)N[C@@H](CCCCNC(=O)OC(C)(C)C)C(=O)OC(C)(C)C)cc1
Class: class 1

Compound: O=C(Nc1cccc(-c2nc3ccccc3[nH]2)c1)c1ccc(C(=O)Nc2cccc(-c3nc4ccccc4[nH]3)c2)cc1
Class: class 0

Compound: C[C@H]1c2cccc(O)c2C(O)=C2C(=O)[C@]3(O)C(O)=C(C(N)=O)C(=O)[C@@H](N(C)C)C3[C@@H](O)C21 (some centres undefined)
Class: class 1

Now consider a different compound.
Inquiry: GET /call?item= CCc1cccc2c(C(=O)COC(=O)/C=C/c3ccc(O)c(OC)c3)c[nH]c12 returns the recorded outcome of this test.
Reply text: class 1

* * *

Tgt: S. pyogenes SKKanGAS, kanamycin survival, BacTiterGlo, 6 h
Assay Method Text: S. pyogenes SKKanGAS kanamycin growth inhibitors – SKKanGAS strain, luminescence, dose confirmation, streptokinase promoter inhibitor project, dose response (AID 1902);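 further: lower survival reflects blocked streptokinase promoter driving kanamycin resistance gene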
The source made the active and inactive calls.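 How the source made its calls: active means EC50 no more than a set limit of log units above the highest dose; inactive means the rest.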
Choose the fitting class; nothing outside 1.0 (active), 0.0 (inactive) is accepted.

Field: example entries. Status: answers known.
Molecule: S=C1NC[C@H](CC2CCCCC2)N1CC1CCCCC1
Tgt: S. pyogenes SKKanGAS, kanamycin survival, BacTiterGlo, 6 h
Class: 1.0
//
Molecule: Cc1cccc(NS(=O)(=O)c2ccc(C3CCCCC3)cc2)c1
Tgt: S. pyogenes SKKanGAS, kanamycin survival, BacTiterGlo, 6 h
Class: 1.0
//
Molecule: c1ccc(OCc2nc3c4c(ncn3n2)-c2ccccc2CC42CCCC2)cc1
Tgt: S. pyogenes SKKanGAS, kanamycin survival, BacTiterGlo, 6 h
Class: 1.0

Inquiry: Recorded call for O=C(N/N=C/c1c(O)n(C2CCCCC2)c(=S)[nH]c1=O)c1ccccc1O ?
Reply text: 1.0

Inquiry: State the result this test recorded for CCc1ccc(S(=O)(=O)/N=C2\C=C(Nc3ccc(C(=O)O)cc3)C(=O)c3ccccc32)cc1 .
Reply text: 1.0

Inquiry: What is the recorded call for this molecule in the test? O=C(N/N=C/c1cc([N+](=O)[O-])cc(Br)c1O)C12CC3CCC(CC(C3)C1)C2
Reply text: 1.0

Inquiry: So what was the verdict on Cc1nn(-c2ccccc2)c(Cl)c1/C=C1\SC(=S)N(CCCCCC(=O)O)C1=O in this test?
Reply text: 1.0

Inquiry: How did this test come out for S=c1nc(SCc2ccccc2)[nH]c2ccccc12 ?
Reply text: 1.0

Inquiry: Which outcome was entered for the molecule Cc1ccc(C(=O)c2c(C)oc3c2C(=O)C(=O)c2ccccc2-3)cc1 in this test?
Reply text: 1.0

Inquiry: Look up the recorded call for CCOC(=O)c1ccc(NC(=O)c2nc[nH]c2C(=O)N[C@@H](CCCCNC(=O)OC(C)(C)C)C(=O)OC(C)(C)C)cc1 in this test.
Reply text: 1.0

Inquiry: How was Cc1[nH][nH]c(=O)c1C(c1c(C)[nH][nH]c1=O)c1cn(Cc2ccc(Cl)c(Cl)c2)c2ccccc12 classified in this test?
Reply text: 1.0

Inquiry: # outcome recorded in this test, key = Cc1ccccc1C(=O)Oc1cccc(Nc2ncnc3ccccc23)c1
Reply text: 1.0

Inquiry: Test call for this molecule, please: O=C(Nc1cccc(Cl)c1N1CCCC1)c1cc2ccccc2o1
Reply text: 1.0

Inquiry: Kindly provide the recorded test outcome for the following molecule: CC1=NNC(=O)/C1=C\c1cn(-c2ccccc2)nc1-c1ccc(Cl)cc1
Reply text: 1.0

Inquiry: Write down the call the test reported for this molecule. Item: Cn1c(-c2c(N)n(C3CCCC3)c3nc4ccccc4nc23)nc2ccccc21
Reply text: 1.0

Inquiry: What was the test verdict on O=C(O)CCSc1ccc([N+](=O)[O-])cc1[N+](=O)[O-] ?
Reply text: 0.0

Inquiry: // outcome(item) with item = S=c1nc2ccccc2c2nc(-c3ccccc3)[nH]n12
Reply text: 1.0

Inquiry: How did this test come out for O=C(Nc1ccc(Cl)c(Cl)c1)O/N=C/c1ccncc1 ?
Reply text: 1.0

Inquiry: For CCCC(=O)NC(c1ccc(C(C)C)cc1)c1ccc2cccnc2c1O (stereo not given) , what call appears in the results of this test?
Reply text: 1.0
